// provenance: ChEMBL document CHEMBL5303573

Experiment: The drug is tested on Bacteroides fragilis strain: ATCC43859 for biotransformation. The drug concentrations were measured before and after a 12-h incubation by liquid-chromatography-coupled mass spectrometry (LC–MS)
Settings: 2 µM
attribute_measured: Bacterial Biotransformation

Use the examples below as a reference point.
compound	observed_value
CCCN1C[C@H](CSC)C[C@@H]2c3cccc4[nH]cc(c34)C[C@H]21.CS(=O)(=O)O [PERGOLIDE MESYLATE]	Compound NOT metabolized
CC[C@H](C)C(=O)O[C@H]1C[C@@H](C)C=C2C=C[C@H](C)[C@H](CC[C@@H]3C[C@@H](O)CC(=O)O3)[C@H]21 [LOVASTATIN]	Compound NOT metabolized
CNCCC(Oc1ccc(C(F)(F)F)cc1)c1ccccc1 (configuration not stated) [FLUOXETINE]	Compound metabolized
OCCN1CCN(CCCN2c3ccccc3Sc3ccc(C(F)(F)F)cc32)CC1 [FLUPHENAZINE]	Compound NOT metabolized

Enquiry: Report Bacterial Biotransformation for CC(C)(C)N.CCC[C@H](N[C@@H](C)C(=O)N1[C@H](C(=O)O)C[C@@H]2CCCC[C@@H]21)C(=O)OCC [PERINDOPRIL ERBUMINE] please.
Return: Compound NOT metabolized

Enquiry: Report Bacterial Biotransformation for Cc1nc2n(c(=O)c1CCN1CCC(c3noc4cc(F)ccc34)CC1)CCCC2 [RISPERIDONE] please.
Return: Compound metabolized

Enquiry: Report Bacterial Biotransformation for COc1ccc2[nH]c([S+]([O-])Cc3ncc(C)c(OC)c3C)nc2n1 (configuration not stated) [TENATOPRAZOLE] please.
Return: Compound metabolized

* * *

Experiment: The drug is tested on Bacteroides xylanisolvens strain: DSM18836 for biotransformation. The drug concentrations were measured before and after a 12-h incubation by liquid-chromatography-coupled mass spectrometry (LC–MS)
Conditions: 2 µM

compound	Bacterial Biotransformation
CCN(CC)C(C)CN1c2ccccc2Sc2ccccc21 (centres undefined) [ETHOPROPAZINE]	Compound metabolized
C=CCc1ccccc1OCC(O)CNC(C)C (centres undefined) [ALPRENOLOL]	Compound NOT metabolized
Nc1nc(NC2CC2)c2ncn([C@H]3C=C[C@@H](CO)C3)c2n1.Nc1nc(NC2CC2)c2ncn([C@H]3C=C[C@@H](CO)C3)c2n1.O=S(=O)(O)O [ABACAVIR SULFATE]	Compound NOT metabolized
CCN(CC)C(=O)/C(C#N)=C/c1cc(O)c(O)c([N+](=O)[O-])c1 [ENTACAPONE]	Compound metabolized

* * *

Conditions: bacteroides thetaiotaomicron, 12 h, 2 µM
attribute_measured: Bacterial Biotransformation

Use the examples below as a reference point.
compound	Bacterial Biotransformation
COc1cc2nc(N3CCN(C(=O)C4COc5ccccc5O4)CC3)nc(N)c2cc1OC.CS(=O)(=O)O (configuration not stated) [DOXAZOSIN MESYLATE]	Compound NOT metabolized
COc1ccc2c3c1O[C@H]1C[C@@H](O)C=C[C@@]31CCN(C)C2	Compound metabolized
CCN(CC)C(C)CN1c2ccccc2Sc2ccccc21 (configuration not stated)	Compound metabolized
CN(C)CCOC(c1ccc(Cl)cc1)c1ccccn1.O=C(O)/C=C\C(=O)O (configuration not stated) [CARBINOXAMINE MALEATE]	Compound NOT metabolized
Cc1ccc(/C(=C\CN2CCCC2)c2ccccn2)cc1	Compound NOT metabolized
CCOC(=O)[C@H](CCc1ccccc1)N[C@@H](C)C(=O)N1Cc2ccccc2C[C@H]1C(=O)O	Compound metabolized
COc1ccccc1N1CCN(CC(O)COc2cccc3ccccc23)CC1 (configuration not stated)	Compound NOT metabolized
C[C@]12CCC(=O)C=C1[C@@H]1C[C@@H]1[C@H]1[C@@H]3[C@@H]4C[C@@H]4[C@@]4(CCC(=O)O4)[C@@]3(C)CC[C@@H]12	Compound NOT metabolized
CC[C@@H](CO)NC(=O)[C@@H]1C=C2c3cccc4c3c(cn4C)C[C@H]2N(C)C1.O=C(O)/C=C\C(=O)O [METHYSERGIDE MALEATE]	Compound metabolized
O=C(CCCN1CCC(O)(c2ccc(Cl)cc2)CC1)c1ccc(F)cc1	Compound NOT metabolized

Enquiry: Report Bacterial Biotransformation for CC12CC3CC(C)(C1)CC(N)(C3)C2 [MEMANTINE] please.
Return: Compound NOT metabolized

Enquiry: Report Bacterial Biotransformation for CCN(CC)C(=O)C1(c2ccccc2)CC1CN (configuration not stated) please.
Return: Compound NOT metabolized

Enquiry: Report Bacterial Biotransformation for CN1CCC(=C2c3ccccc3CC(=O)c3sccc32)CC1.O=C(O)/C=C/C(=O)O [KETOTIFEN FUMARATE] please.
Return: Compound NOT metabolized

Enquiry: Report Bacterial Biotransformation for CN1CCN2c3ccccc3Cc3ccccc3C2C1 (configuration not stated) please.
Return: Compound NOT metabolized

Enquiry: Report Bacterial Biotransformation for CCN(CC)CCOC(=O)C(Cc1cccc2ccccc12)CC1CCCO1.O=C(O)C(=O)O (configuration not stated) [NAFRONYL OXALATE] please.
Return: Compound NOT metabolized

Enquiry: Report Bacterial Biotransformation for COc1ccc(CCN(C)CCCC(C#N)(c2ccc(OC)c(OC)c2)C(C)C)cc1OC (configuration not stated) please.
Return: Compound metabolized

Enquiry: Report Bacterial Biotransformation for CN1CCN(CC/C=C2/c3ccccc3Sc3ccc(S(=O)(=O)N(C)C)cc32)CC1 please.
Return: Compound NOT metabolized

* * *

Experiment: The drug is tested on Bacteroides dorei strain: DSM17855 for biotransformation. The drug concentrations were measured before and after a 12-h incubation by liquid-chromatography-coupled mass spectrometry (LC–MS)
Conditions: phocaeicola dorei, 2 µM
attribute_measured: Bacterial Biotransformation

Use the examples below as a reference point.
molecule	observed_value
COC(=O)C(c1ccccc1)C1CCCCN1 (stereo not given) [METHYLPHENIDATE]	Compound NOT metabolized
CC(C)(C(=O)O)c1ccc(C(O)CCCN2CCC(C(O)(c3ccccc3)c3ccccc3)CC2)cc1 (stereo not given) [FEXOFENADINE]	Compound NOT metabolized
C[C@H]1O[C@@H](O[C@H]2[C@@H](O)C[C@H](O[C@H]3[C@@H](O)C[C@H](O[C@H]4CC[C@@]5(C)[C@H](CC[C@@H]6[C@@H]5C[C@@H](O)[C@]5(C)[C@@H](C7=CC(=O)OC7)CC[C@]65O)C4)O[C@@H]3C)O[C@@H]2C)C[C@H](O)[C@@H]1O	Compound metabolized
Cc1cc(C)cc(OCC2CNC(=O)O2)c1 (stereo not given)	Compound metabolized
COc1ccc(/C=C/C(=O)Nc2ccccc2C(=O)O)cc1OC	Compound NOT metabolized
CCN(CC)C(C)CN1c2ccccc2Sc2ccccc21 (stereo not given)	Compound metabolized
CN(C)C(=O)Oc1cc(OC(=O)N(C)C)cc(C(O)CNC(C)(C)C)c1 (stereo not given)	Compound NOT metabolized
CN1CCC[C@@H]1CCO[C@](C)(c1ccccc1)c1ccc(Cl)cc1.O=C(O)/C=C/C(=O)O [CLEMASTINE FUMARATE]	Compound metabolized
O=C(CCCN1CCC2(CC1)C(=O)NCN2c1ccccc1)c1ccc(F)cc1	Compound NOT metabolized
Br.CN1CCC[C@@H]1Cc1c[nH]c2ccc(CCS(=O)(=O)c3ccccc3)cc12 [ELETRIPTAN HYDROBROMIDE]	Compound NOT metabolized

Enquiry: Report Bacterial Biotransformation for CN[C@H]1CC[C@@H](c2ccc(Cl)c(Cl)c2)c2ccccc21 please.
Return: Compound NOT metabolized

Enquiry: Report Bacterial Biotransformation for CCN(CC)C(=O)/C(C#N)=C/c1cc(O)c(O)c([N+](=O)[O-])c1 please.
Return: Compound metabolized

Enquiry: Report Bacterial Biotransformation for Cc1nc(Nc2ncc(C(=O)Nc3c(C)cccc3Cl)s2)cc(N2CCN(CCO)CC2)n1.O please.
Return: Compound metabolized

Enquiry: Report Bacterial Biotransformation for CCCCC1=NC2(CCCC2)C(=O)N1Cc1ccc(-c2ccccc2-c2nnn[nH]2)cc1 please.
Return: Compound metabolized

Enquiry: Report Bacterial Biotransformation for C#C[C@]1(O)CC[C@H]2[C@@H]3CCC4=Cc5oncc5C[C@]4(C)[C@H]3CC[C@@]21C please.
Return: Compound metabolized

Enquiry: Report Bacterial Biotransformation for CCOC(=O)[C@H](CCc1ccccc1)N[C@@H](C)C(=O)N1[C@H](C(=O)O)C[C@H]2CCCC[C@@H]21 please.
Return: Compound metabolized

Enquiry: Report Bacterial Biotransformation for CC(C)(C)N.CCC[C@H](N[C@@H](C)C(=O)N1[C@H](C(=O)O)C[C@@H]2CCCC[C@@H]21)C(=O)OCC please.
Return: Compound NOT metabolized

Enquiry: Report Bacterial Biotransformation for COC1=C(OC)C(=O)C(CCCCCCCCCCO)=C(C)C1=O please.
Return: Compound NOT metabolized

Enquiry: Report Bacterial Biotransformation for CC(C)c1nc(CN(C)C(=O)N[C@H](C(=O)N[C@@H](Cc2ccccc2)C[C@H](O)[C@H](Cc2ccccc2)NC(=O)OCc2cncs2)C(C)C)cs1 please.
Return: Compound metabolized

Enquiry: Report Bacterial Biotransformation for CCN1CCCC1CNC(=O)c1cc(S(N)(=O)=O)ccc1OC (stereo not given) [SULPIRIDE] please.
Return: Compound NOT metabolized

Enquiry: Report Bacterial Biotransformation for CCCN1C[C@H](CSC)C[C@@H]2c3cccc4[nH]cc(c34)C[C@H]21.CS(=O)(=O)O [PERGOLIDE MESYLATE] please.
Return: Compound NOT metabolized

Enquiry: Report Bacterial Biotransformation for O=C(NCc1ccccc1)OCCO [BURAMATE] please.
Return: Compound NOT metabolized
